test-method-notes: Cytotoxicity, CCK-8 assay
Type: cell-based
assay-setup: African green monkey, Marc cells, concentration 30 µM (about 10.0 mg/L), read-out: cell viability
List of viability at 24 h, 30 µM values.

C=CCn1c(/C=C/c2ccccc2)nc2cc(C(F)(F)F)ccc21 [4b] :: > 70%

Let us move to another entry and its viability at 24 h, 30 µM.
Short answer for C=CCn1c(-c2ccc(Oc3ccccc3)cc2)nc2cc(C)ccc21 [12b] : viability at 24 h, 30 µM was > 70%
